Reference source for all entries: patent US20210346339A1

Tested on: Vero 76 cells
readout_name: CC50 (µM)
# output: bare number, implied unit µM

Query: May I ask what CC50 has been recorded for COc1cc(-c2cc(=O)c3c(O)cc(O)c(CC=C(C)C)c3o2)ccc1O [FBL-03G] ?
Response: 2.9

###

target_system: GAK (Homo sapiens, UniProt O14976)
Sequence (O14976 1-1311): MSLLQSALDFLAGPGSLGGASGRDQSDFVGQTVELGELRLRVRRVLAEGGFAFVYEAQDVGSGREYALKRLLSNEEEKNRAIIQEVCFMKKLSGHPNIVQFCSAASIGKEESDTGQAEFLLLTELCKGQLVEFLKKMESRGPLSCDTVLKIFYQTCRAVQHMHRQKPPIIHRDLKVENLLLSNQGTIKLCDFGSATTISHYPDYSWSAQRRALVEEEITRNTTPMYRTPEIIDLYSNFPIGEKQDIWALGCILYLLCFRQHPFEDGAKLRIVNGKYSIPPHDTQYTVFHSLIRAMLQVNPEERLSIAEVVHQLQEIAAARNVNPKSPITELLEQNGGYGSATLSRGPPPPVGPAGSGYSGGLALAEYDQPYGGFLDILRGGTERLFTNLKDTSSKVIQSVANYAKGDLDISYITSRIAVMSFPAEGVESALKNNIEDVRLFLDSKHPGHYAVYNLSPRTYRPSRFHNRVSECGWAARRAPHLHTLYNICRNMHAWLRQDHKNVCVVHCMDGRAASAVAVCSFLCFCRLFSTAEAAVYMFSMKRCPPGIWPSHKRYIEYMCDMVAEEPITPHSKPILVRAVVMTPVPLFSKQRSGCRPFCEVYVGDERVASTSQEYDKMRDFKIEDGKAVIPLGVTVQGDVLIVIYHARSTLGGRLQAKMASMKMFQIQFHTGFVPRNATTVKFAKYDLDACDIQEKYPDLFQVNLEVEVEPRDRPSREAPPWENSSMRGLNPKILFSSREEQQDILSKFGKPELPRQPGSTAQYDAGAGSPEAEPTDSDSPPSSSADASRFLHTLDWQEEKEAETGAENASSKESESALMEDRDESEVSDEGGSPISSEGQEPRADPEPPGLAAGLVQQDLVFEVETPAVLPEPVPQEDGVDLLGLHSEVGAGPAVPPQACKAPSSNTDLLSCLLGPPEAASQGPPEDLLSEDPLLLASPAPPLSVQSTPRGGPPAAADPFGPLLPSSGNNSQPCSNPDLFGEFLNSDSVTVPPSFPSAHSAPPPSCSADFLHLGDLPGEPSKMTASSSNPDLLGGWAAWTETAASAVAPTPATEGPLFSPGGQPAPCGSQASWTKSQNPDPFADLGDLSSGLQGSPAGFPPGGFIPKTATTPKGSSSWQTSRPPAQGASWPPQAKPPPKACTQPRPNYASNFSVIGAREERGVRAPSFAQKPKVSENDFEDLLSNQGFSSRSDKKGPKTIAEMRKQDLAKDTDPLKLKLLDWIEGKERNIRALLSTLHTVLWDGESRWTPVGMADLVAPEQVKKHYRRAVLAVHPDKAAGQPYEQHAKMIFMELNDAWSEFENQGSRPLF
readout_name: IC50 (nM)
# output: bare number, implied unit nM

Query: May I ask what IC50 has been recorded for COc1cc(-c2cc(=O)c3c(O)cc(O)c(CC=C(C)C)c3o2)ccc1O [FBL-03G] ?
Response: 8

###

target_system: AAK1 (Homo sapiens)
Sequence (Q2M2I8 whole entry): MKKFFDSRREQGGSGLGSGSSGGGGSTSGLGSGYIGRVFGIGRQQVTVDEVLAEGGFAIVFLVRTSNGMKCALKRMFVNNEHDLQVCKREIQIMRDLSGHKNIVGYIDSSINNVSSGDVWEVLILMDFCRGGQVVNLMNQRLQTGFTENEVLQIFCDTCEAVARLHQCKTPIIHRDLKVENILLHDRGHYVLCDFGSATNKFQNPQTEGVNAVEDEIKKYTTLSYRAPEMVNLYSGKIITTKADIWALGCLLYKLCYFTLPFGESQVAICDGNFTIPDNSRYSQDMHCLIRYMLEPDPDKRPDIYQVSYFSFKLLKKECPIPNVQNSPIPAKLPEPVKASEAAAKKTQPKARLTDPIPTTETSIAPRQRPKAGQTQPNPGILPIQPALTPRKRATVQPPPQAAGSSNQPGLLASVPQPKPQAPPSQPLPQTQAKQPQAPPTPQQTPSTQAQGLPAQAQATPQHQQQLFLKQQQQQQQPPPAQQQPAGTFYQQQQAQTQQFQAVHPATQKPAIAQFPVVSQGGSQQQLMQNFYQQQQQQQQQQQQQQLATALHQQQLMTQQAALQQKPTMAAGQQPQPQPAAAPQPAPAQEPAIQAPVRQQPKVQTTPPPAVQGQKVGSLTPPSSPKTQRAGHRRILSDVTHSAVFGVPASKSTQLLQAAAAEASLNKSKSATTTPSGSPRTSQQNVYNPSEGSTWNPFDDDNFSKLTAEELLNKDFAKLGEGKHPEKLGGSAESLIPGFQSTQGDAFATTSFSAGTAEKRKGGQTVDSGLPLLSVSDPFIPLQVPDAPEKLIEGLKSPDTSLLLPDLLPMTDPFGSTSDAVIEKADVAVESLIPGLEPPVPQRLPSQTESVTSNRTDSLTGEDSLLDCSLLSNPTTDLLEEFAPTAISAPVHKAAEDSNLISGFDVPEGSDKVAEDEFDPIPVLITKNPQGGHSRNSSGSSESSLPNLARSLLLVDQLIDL
readout_name: pIC50
Units for pIC50: none; it is -log10 of a concentration expressed in mol/L.

Query: May I ask what pIC50 has been recorded for COc1cc(-c2cc(=O)c3c(O)cc(O)c(CC=C(C)C)c3o2)ccc1O [FBL-03G] ?
Response: 8.40
